src = the supplement of paper PMC11246515

# assay-text: total protein half-life in vivo (active degradation + dilution); higher = more stable protein
# condition-info: wild type E. coli NCM3722; growth: N-lim chemostat; doubling time 6 h
Each entry below lists one item and its recorded total protein half-life in vivo value.
Enter your answer as a number in h; do not include the unit.

# count of solved cases: 2
MVELKEPLATLWRGKDAFAEVKKLNGEVFRELETRRTLRFELSGKSYFLKWHKGTTLKEIIKNLLSLRMPVLGADREWHAIHRLSDVGVDTMKGIGFGEKGLNPLTRASFIITEDLTPTISLEDYCADWAVNPPDIRVKRMLIARVATMVRKMHTAGINHRDCYICHFLLHLPFTGREDELKISVIDLHRAQIRAKVPRRWRDKDLIGLYFSSMNIGLTQRDIWRFMKVYFGMPLRKILSLEQNLLNMASVKAERIKERTQRKGL : 5.76
MTAPSQVLKIRRPDDWHLHLRDGDMLKTVVPYTSEIYGRAIVMPNLAPPVTTVEAAVAYRQRILDAVPAGHDFTPLMTCYLTDSLDPNELERGFNEGVFTAAKLYPANATTNSSHGVTSIDAIMPVLERMEKIGMPLLVHGEVTHADIDIFDREARFIESVMEPLRQRLTALKVVFEHITTKDAADYVRDGNERLAATITPQHLMFNRNHMLVGGVRPHLYCLPILKRNIHQQALRELVASGFNRVFLGTDSAPHARHRKESSCGCAGCFNAPTALGSYATVFEEMNALQHFEAFCSVNGPQFYGLPVNDTFIELVREEQQVAESIALTDDTLVPFLAGETVRWSVKQ : 5.06

q: So what's the measured total protein half-life in vivo for this one? MSWISPELIEILLTILKAVVILLVVVTCGAFMSFGERRLLGLFQNRYGPNRVGWGGSLQLVADMIKMFFKEDWIPKFSDRVIFTLAPMIAFTSLLLAFAIVPVSPGWVVADLNIGILFFLMMAGLAVYAVLFAGWSSNNKYSLLGAMRASAQTLSYEVFLGLSLMGVVAQAGSFNMTDIVNSQAHVWNVIPQFFGFITFAIAGVAVCHRHPFDQPEAEQELADGYHIEYSGMKFGLFFVGEYIGIVTISALMVTLFFGGWQGPLLPPFIWFALKTAFFMMMFILIRASLPRPRYDQVMSFGWKICLPLTLINLLVTAAVILWQAQ [P0AFD4]
a: 6.53

---

# assay-text: total protein half-life in vivo (active degradation + dilution); higher = more stable protein
# condition-info: wild type E. coli NCM3722; growth: C-lim chemostat; doubling time 6 h
Each entry below lists one item and its recorded total protein half-life in vivo value.
Enter your answer as a number in h; do not include the unit.

MSAQVSLELHHRISQFLFHEASLLDDWKFRDWLAQLDEEIRYTMRTTVNAQTRDRRKGVQPPTTWIFNDTKDQLERRIARLETGMAWAEEPPSRTRHLISNCQISETDIPNVFAVRVNYLLYRAQKERDETFYVGTRFDKVRRLEDDNWRLLERDIVLDQAVITSHNLSVLF : 5.02

Now take the following sequence into account.
q: So what's the measured total protein half-life in vivo for this one? "MKVLTVFGTRPEAIKMAPLVHALAKDPFFEAKVCVTAQHREMLDQVLKLFSIVPDYDLNIMQPGQGLTEITCRILEGLKPILAEFKPDVVLVHGDTTTTLATSLAAFYQRIPVGHVEAGLRTGDLYSPWPEEANRTLTGHLAMYHFSPTETSRQNLLRENVADSRIFITGNTVIDALLWVRDQVMSSDKLRSELAANYPFIDPDKKMILVTGHRRESFGRGFEEICHALADIATTHQDIQIVYPVHLNPNVREPVNRILGHVKNVILIDPQEYLPFVWLMNHAWLILTDSGGIQEEAPSLGKPVLVMRDTTERPEAVTAGTVRLVGTDKQRIVEEVTRLLKDENEYQAMSRAHNPYGDGQACSRILEALKNNRISL"
a: 5.8
